The reported numbers originate from PubChem BioAssay (NCI).

Entries annotated with measured TGI
# Tested on: SF-539 CNS
# assay_comment: NCI tumour cell line growth inhibition, 48 h
The reply should contain only the number, in µM.

Could you share which TGI value was measured for O=[N+]([O-])c1oc2ccc3ccccc3c2c1CCO ?
13.4

---
Could you share which TGI value was measured for CCC1CCC2c3c([nH]c4ccc(C)cc34)C3C(=O)N(N(C)C)C(=O)C3C2C1 (stereo not given) ?
45.5

----------
# Tested on: U251 CNS
# assay_comment: NCI tumour cell line growth inhibition, 48 h
Entries annotated with measured TGI

Below, each entry is followed by its recorded TGI result.
Could you share which TGI value was measured for O=CN1CCC23CC(O)CCC2C1Cc1cc(Oc2nnnn2-c2ccccc2)cc(O)c13 (stereo not drawn) ?
> 100 µM

Could you share which TGI value was measured for Cc1ccc(OCCOCCOCCOCCOCCOc2ccc(C)n(O)c2=S)c(=S)n1O ?
> 100 µM

Could you share which TGI value was measured for N#Cc1c(N/N=C\c2ccc(Cl)cc2)nc(N)nc1N1CCOCC1 ?
> 100 µM

Could you share which TGI value was measured for COc1ccc(-c2[nH]nc(N)c2-c2cc(OC)c(OC)c(OC)c2)cc1 ?
> 100 µM

Field: next molecule
Could you share which TGI value was measured for C/C(=C\C(=N\NC(=N)N)c1ccccc1)c1ccccc1 ?
2.04 µM

----------
Entries annotated with measured TGI
# System: TK-10 renal
# assay_comment: NCI tumour cell line growth inhibition, 48 h

Below, each entry is followed by its recorded TGI result.
Param readout= TGI; system= TK-10 renal; entry= [Cu+2].[NH-]C(CC(=O)O)C(=O)O.[NH-]C(CC(=O)O)C(=O)O (stereo unspecified) ; returns value.
> 100 µM

Param readout= TGI; system= TK-10 renal; entry= O=[N+]([O-])c1oc2ccc3ccccc3c2c1CCO ; returns value.
27.7 µM

---
Param readout= TGI; system= TK-10 renal; entry= NC(=O)CCC(NC(=O)c1c2ccccc2nc2ccccc12)C(=O)O (stereo unspecified) ; returns value.
> 100 µM

Param readout= TGI; system= TK-10 renal; entry= CCCCCCCCCCCCCCCCN(CC)CC ; returns value.
3.4 µM

Param readout= TGI; system= TK-10 renal; entry= CC(=Nc1ccc(Cl)c(Cl)c1)c1ccncc1 ; returns value.
> 100 µM

Param readout= TGI; system= TK-10 renal; entry= O=c1c(-c2ccccc2)c(SCCN2CCOCC2)n(-c2ccccc2)c(=S)n1-c1ccccc1 ; returns value.
> 100 µM

----------
# System: U251 CNS
# assay_comment: NCI tumour cell line growth inhibition, 48 h
readout_kind: TGI

Could you share which TGI value was measured for O=c1oc2ccc(Br)cc2c(=O)n1-c1ccc(Cl)cc1F ?
> 39.2 µM

Could you share which TGI value was measured for CN(/N=C\c1ccnc2ccccc12)c1ccccc1 ?
84.9 µM

Could you share which TGI value was measured for O=C(CSSCC(=O)OCCS(=O)(=O)Nc1ccc(Br)cc1)OCCS(=O)(=O)Nc1ccc(Br)cc1 ?
> 100 µM

Could you share which TGI value was measured for CCCCCCCCCCCCSC(=S)c1c(C)[nH]n(CCCCCCCCCCCC)c1=O ?
> 100 µM

---
Could you share which TGI value was measured for CCOC(=O)C(NC(=O)CC)(Nc1ccc(F)cc1F)C(F)(F)F (stereo not given) ?
> 100 µM

Could you share which TGI value was measured for CC(=O)OCC1OC(n2ncc(=O)[nH]c2=O)C(OC(C)=O)C1OC(C)=O (stereo not given) ?
> 100 µM

Could you share which TGI value was measured for Cc1cc(S(=O)(=O)NC(=NCCc2ccccc2)NN)c(S)cc1Cl ?
32.4 µM
